Provenance of the data: PubChem BioAssay AID504462

# experimental_target: Cysteine protease ATG4B (Homo sapiens) (UniProt Q9Y4P1)
# Sequence (Q9Y4P1 whole entry, looked up): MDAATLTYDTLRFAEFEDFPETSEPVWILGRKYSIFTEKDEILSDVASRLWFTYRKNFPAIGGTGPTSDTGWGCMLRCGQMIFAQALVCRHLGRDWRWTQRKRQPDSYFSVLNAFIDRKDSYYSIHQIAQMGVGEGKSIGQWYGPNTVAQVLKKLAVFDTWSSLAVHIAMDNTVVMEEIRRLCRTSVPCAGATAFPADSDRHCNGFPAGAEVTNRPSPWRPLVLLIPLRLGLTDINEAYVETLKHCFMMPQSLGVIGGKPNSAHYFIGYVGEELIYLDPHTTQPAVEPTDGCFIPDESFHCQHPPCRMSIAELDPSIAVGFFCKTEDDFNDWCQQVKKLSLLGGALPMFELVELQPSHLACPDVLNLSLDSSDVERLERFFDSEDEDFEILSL
# procedure_summary: ATG4B protease inhibitors, primary screen, biochemical, fluorescence, uHTS (AID 504462)
# protocol_conditions: ATG4B cleavage of LC3-PLA2, NBD-HPC fluorescence, 1 h; at 8.33 µM; hits give high values
In all, about 340,000 compounds went through this assay and about 1,700 (0.5%) were called active. The sample as a whole holds a higher share of actives than the screen did.
measure: inhibition

molecule	experimental_target	measure	result
CCCc1nc2c(c(=O)c3ccccc3n2C)c(=O)n1C1CCCCCC1	Cysteine protease ATG4B (Homo sapiens) (UniProt Q9Y4P1)	inhibition	41.3% (active)
COC(=O)c1ccc(CNC(=O)Cn2cc(C)c(=O)[nH]c2=O)cc1	Cysteine protease ATG4B (Homo sapiens) (UniProt Q9Y4P1)	inhibition	-5.77% (inactive)
Cn1c(=O)c2c(SCC(=O)N3CCOCC3)nc(C3CC3)nc2n(C)c1=O	Cysteine protease ATG4B (Homo sapiens) (UniProt Q9Y4P1)	inhibition	-4.88% (inactive)
CN1C(C)(C)CC(NC(=O)CCC(=O)NC2CC(C)(C)N(C)C(C)(C)C2)CC1(C)C	Cysteine protease ATG4B (Homo sapiens) (UniProt Q9Y4P1)	inhibition	-1.23% (inactive)
CCOC(=O)C1=C(C)N(C[C@@H]2CC[C@@H](Cc3ccc(-c4ccccc4)cc3)O2)C(=O)NC1c1ccc([N+](=O)[O-])cc1 (stereo not given in full)	Cysteine protease ATG4B (Homo sapiens) (UniProt Q9Y4P1)	inhibition	1.26% (inactive)
COC(=O)c1c(NC(=O)CSc2nncs2)sc2c1CCCCC2	Cysteine protease ATG4B (Homo sapiens) (UniProt Q9Y4P1)	inhibition	-14.5% (inactive)
COC(=O)c1c(NC(=O)C2CC(C)=C(C)CC2C(=O)O)sc2c1CCCCC2 (stereo not given)	Cysteine protease ATG4B (Homo sapiens) (UniProt Q9Y4P1)	inhibition	70.5% (active)
CC1CCN(Cc2nc3c(c(=O)n(C)c(=O)n3C)n2CCc2ccccc2)CC1	Cysteine protease ATG4B (Homo sapiens) (UniProt Q9Y4P1)	inhibition	-1.37% (inactive)
Cn1c2ccccc2c2c(C(=O)N3CCN(c4ccc(F)cc4)CC3)cn(C3CCCC3)c(=O)c21	Cysteine protease ATG4B (Homo sapiens) (UniProt Q9Y4P1)	inhibition	-29.5% (inactive)
CCc1ccc2c(c1)C(c1ccc([N+](=O)[O-])cc1)=NNC(c1ccccc1)=N2	Cysteine protease ATG4B (Homo sapiens) (UniProt Q9Y4P1)	inhibition	61% (active)

====

# inhibition annotations
# experimental_target: Cysteine protease ATG4B (Homo sapiens) (UniProt Q9Y4P1)
# procedure_summary: ATG4B protease inhibitors, primary screen, biochemical, fluorescence, uHTS (AID 504462)
# protocol_conditions: ATG4B cleavage of LC3-PLA2, NBD-HPC fluorescence, 1 h; at 8.33 µM; hits give high values
Hit rate of the full screen: of about 340,000 compounds, about 1,700 (0.5%) were called active. Many of the other results were omitted from the sample, so actives are more common in it than they were.

compound	inhibition
CC(C)c1nc(SCC(=O)Nc2cccc(C(=O)O)c2)c2c3c(sc2n1)CCCC3	68.4% (active)
CCCCn1c(N)c(N(CCC(C)C)C(=O)CC2OC(=O)c3ccccc32)c(=O)[nH]c1=O (stereo not drawn)	-0.15% (inactive)
Cc1nc2ccccc2c(C(=O)O)c1-c1ccccn1	-2.51% (inactive)
COC(=O)c1c(NC(=O)c2c(Cl)cnn2C)sc(C)c1C	-7.14% (inactive)
CCCC1=Nc2cc(C(=O)NCc3ccco3)ccc2Sc2ccccc21	40.2% (active)
CC(C)c1ccc2c(c1)c(SC(C)(C)C)c(CC(C)(C)C(=O)O)n2Cc1ccc(Cl)cc1	56.2% (active)
CC(=O)C1(C)N(O)C(C)(C)C(c2cccs2)=[N+]1[O-] (stereo not drawn)	6.58% (inactive)
O=C(Nc1cc(S(=O)(=O)Nc2ccc(Cl)cc2)ccc1O)c1ccc(F)cc1F	13.4% (inactive)
CCNC(=O)c1ccc(OCC(=O)Nc2ccc(F)cc2)c(OC)c1	2.31% (inactive)
CCN1CCN(C(C(=O)NC2CCCC2)c2cc3c(cc2[N+](=O)[O-])OCO3)CC1 (stereo not drawn)	-0.97% (inactive)
COc1ccc(-c2[nH]nc3c2C(c2ccncc2)C(C#N)=C(N)O3)cc1 (stereo not drawn)	-11% (inactive)
CN(CC(=O)Nc1cccc(F)c1)C(=O)C1CC(=O)N(CCc2ccccc2)C1 (stereo not drawn)	-5.48% (inactive)
CCOC(=O)N/N=C/c1cn(Cc2ccccc2Cl)c2ccccc12	48% (active)
O=C(c1ccncc1)N1CCN(S(=O)(=O)c2cccc([N+](=O)[O-])c2)CC1	-1.28% (inactive)
O=C(O)c1ccc([N+](=O)[O-])cc1Sc1ccsc1	5.83% (inactive)
COC(=O)N/N=C/c1cn(CCCOc2ccc(C)cc2)c2ccccc12	40.3% (active)
COC(=O)N/N=C/c1c[n+]([O-])c2ccccc2[n+]1[O-]	-2.96% (inactive)
CN(c1ccc(OCC(=O)NC2=NCCS2)cc1)S(=O)(=O)c1ccc(F)cc1	-9.32% (inactive)
CCOC(=O)N1CCC(NC(=O)Cn2cc3c(n2)CCCCC3)CC1	-3.87% (inactive)
CCn1c2c(c3ccc(OC)cc31)CCCC2=O	-3.83% (inactive)
CCCCn1c(N)c(N(CC(C)C)C(=O)CSc2ccc([N+](=O)[O-])cc2)c(=O)[nH]c1=O	8.17% (inactive)
CCCC1=Nc2cc(C(=O)NCCN3CCCC3)ccc2Sc2ccccc21	3.01% (inactive)
CC(=O)NC1(c2cccc(F)c2)CCN(CC(=O)NC(C)C)CC1	-3.58% (inactive)
NS(=O)(=O)c1cc(Cl)c(Cl)c(S(N)(=O)=O)c1	7.96% (inactive)
O=C(Cn1cc(/C=N/NC(=O)c2cccc(C(F)(F)F)c2)c2ccccc21)Nc1ccc(F)cc1	5.83% (inactive)
CCOC(=O)c1cnn(Cc2ccccc2Cl)c1N	-5.17% (inactive)
COc1ccc(OCCNC(=O)c2cc(C3CC3)nc3c2cnn3C(C)C)cc1	-0.45% (inactive)
COc1ccc(CNC(=O)CCCn2nc(C)c([N+](=O)[O-])c2C)cc1	4.24% (inactive)
Cc1ccc(N=C2NC(=O)/C(=C/C=C/c3ccco3)S2)cc1C	47.9% (active)
CC(C)(C)c1ccc(OC2=CS(=O)(=O)c3ccccc32)cc1	46.1% (active)
CC(OC(=O)c1ccc(-n2cnnn2)cc1)C(=O)NCc1ccccc1 (stereo not drawn)	-0.42% (inactive)
Cc1cc(NC(=O)CSc2nc(C(C)C)nc3sc4c(c23)CCC(C)C4)no1 (stereo not drawn)	-8.31% (inactive)
Cc1c(N=Nc2ccc(N(C)C)cc2)c(=O)n(-c2ccccc2)n1C	-2.28% (inactive)
CC1(OC(=O)C2CCCC2)C(=O)C=C2C=C(c3ccc(C#N)cc3)OC=C2C1=O (stereo not drawn)	45.7% (active)
CCc1ccc(N(CC(=O)Nc2sc3c(c2C(=O)OC)CCCC3)S(C)(=O)=O)cc1	-5.39% (inactive)
COC(=O)c1c(NC(=O)COC(=O)[C@@H](NS(=O)(=O)c2ccccc2)C(C)C)sc2c1CCC2	71% (active)
CCCc1[nH]nc2c1C(c1ccc(Br)s1)C(C#N)=C(N)O2 (stereo not drawn)	-2.42% (inactive)
Cc1ccccc1N1CCN(C2CCCN(C(=O)c3ocnc3C)C2)CC1 (stereo not drawn)	4.49% (inactive)
CC(C)(C)c1ccc(CN2C(=O)c3ccccc3S2(=O)=O)cc1	5.21% (inactive)
CCCc1[nH]nc2c1C(c1ccc(OC(=O)c3ccco3)cc1)C(C#N)=C(N)O2 (stereo not drawn)	69.2% (active)
COc1ccccc1S(=O)(=O)c1c(C)cc(C)[nH]c1=O	-5.56% (inactive)
CCN(CC(=O)Nc1c(F)cccc1F)C(=O)c1ccc(-c2ccccc2)cc1	4.11% (inactive)
Cc1nc2ccccc2c(C)c1C(=O)c1ccc(F)cc1	-2.83% (inactive)

====

# inhibition annotations
# experimental_target: Cysteine protease ATG4B (Homo sapiens)
# procedure_summary: ATG4B protease inhibitors, primary screen, biochemical, fluorescence, uHTS (AID 504462)
# protocol_conditions: ATG4B cleavage of LC3-PLA2, NBD-HPC fluorescence, 1 h; at 8.33 µM; hits give high values
The campaign covered roughly 340,000 compounds. About 1,700 (0.5%) were called active. For the sample, actives were picked, then their nearest neighbours and some compounds at random.

molecule	unit_spec	inhibition
Fc1ccccc1N=C1Nc2cccc3cccc1c23	%	-6.86
CC(Oc1ccc(F)cc1)C(=O)Nc1cc(S(=O)(=O)N2CCOCC2)ccc1N1CCN(C)CC1 (configuration not stated)	%	-5.35
CC(C(=O)NCCc1ccc(S(N)(=O)=O)cc1)N1C(=O)CC(C)(C)Sc2ccccc21 (configuration not stated)	%	1.71
Cc1cccc(C(=O)N2CCN(S(=O)(=O)N3CCCCC3)CC2)c1	%	0.43
CCc1ccc(N2CC(C(=O)Nc3ccc(S(=O)(=O)Nc4nccs4)cc3)CC2=O)cc1 (configuration not stated)	%	-16.4
CN(C)Cc1ccc(F)cc1Sc1cc(Cl)ccc1Cl	%	43.6
COc1ccccc1C1=Nc2cccc3cccc(c23)N1	%	12.2
CCN=C1S/C(=C\c2cc(Br)ccc2OCC(=O)OCC)C(=O)N1CC	%	-7.54
CCc1ccc(-n2c(SCc3cc(=O)n4cc(Br)ccc4n3)nc3[nH]ncc3c2=O)cc1	%	-11.3
Cc1cccc(C2c3[nH]c4ccccc4c3CCN2C(=O)c2cc(-c3cccn3C)n[nH]2)n1 (configuration not stated)	%	62.3
CN(C)c1cc(N)c2ccccc2n1 (tested in a mixture with another compound)	%	-6.07
CC1=C/C(=N\S(=O)(=O)c2ccccc2)C(C(C)C)=CC1=O	%	66
COc1ccc(C)cc1N(C)C(=O)c1coc(=O)c2ccccc12	%	-10
CCN1C(=O)/C(=C\N2CCN(c3cccc(Cl)c3)CC2)SC1=S	%	1.01
c1ccc(C2=Nc3cccc4cccc(c34)N2)cc1	%	56.3
CCOC(=O)CCCNC(=O)COC(=O)c1cc(Br)c(Br)s1	%	-7.58
O=C1CN(C(=O)COc2c(Cl)cccc2Cl)c2ccccc2N1	%	-0.21
O=C(COCc1cc(-c2ccc3c(c2)OCO3)on1)N1CCN(c2cccc(Cl)c2)CC1	%	5.35
Cn1cccc1/C=C1\SC(=S)N(NC(=O)c2ccc(Cl)cc2)C1=O	%	11.7
O=C(CNC(=O)c1ccc(Br)o1)NCC1CCCO1 (configuration not stated)	%	-6.66
CCOC(=O)c1ccc(-n2c(CCC(=O)O)ccc2-c2ccccc2)cc1	%	9.28
COc1ccc(S(=O)(=O)/N=C2\C=C(NS(=O)(=O)c3ccccc3)C(=O)c3ccccc32)cc1	%	-24.5
